Test system: 324938-238-R-J1-PDC complex spheroid viability;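 further: spheroids also contain HUVEC and human MSCs and agents combined with iadademstat; spheroids exposed to agents for 7 days before readout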
protocolNotes: Anticancer human tumor 324938-238-R-J1-PDC patient-derived bladder carcinoma cell line growth inhibition
statedConditions: second compound 0.1 µM; first compound 0.01 µM; stronger effect = lower value
Please note: viability, T/C exactly at 50% is NOT MET. Only values below 50% get MET.

INSERT INTO measurements (compound, grouplabel) VALUES
  ('O=C(C=Cn1cnc(-c2cc(C(F)(F)F)cc(C(F)(F)F)c2)n1)NNc1cnccn1 + NC1CCC(NC2CC2c2ccccc2)CC1', 'MET'),
  ('COc1cc(Nc2ncc3c(n2)-c2ccc(Cl)cc2C(c2c(F)cccc2OC)=NC3)ccc1C(=O)O + NC1CCC(NC2CC2c2ccccc2)CC1', 'NOT MET'),
  ('Nc1ncn(C2CC(O)C(CO)O2)c(=O)n1 (stereo unspecified) + NC1CC1c1ccc(-c2cccc(O)c2)cc1', 'NOT MET'),
  ('Cn1ncnc1C1c2n[nH]c(=O)c3cc(F)cc(c23)NC1c1ccc(F)cc1 (stereo unspecified) + NC1CCC(NC2CC2c2ccccc2)CC1', 'NOT MET'),
  ('CC(C)CC(NC(=O)CNC(=O)c1cc(Cl)ccc1Cl)B1OC(=O)CC(CC(=O)O)(C(=O)O)O1 (stereo unspecified) + NC1CC1c1ccc(-c2cccc(O)c2)cc1', 'MET'),
  ('CC(C)CC(NC(=O)C(Cc1ccccc1)NC(=O)c1cnccn1)B(O)O (stereo unspecified) + NC1CC1c1ccc(-c2cccc(O)c2)cc1', 'MET'),
  ('CC(C)CC(NC(=O)C(Cc1ccccc1)NC(=O)c1cnccn1)B(O)O (stereo unspecified) + NC1CCC(NC2CC2c2ccccc2)CC1', 'MET'),
  ('CC1COCCN1c1cc(-c2ccnn2C)c2ccnc(-c3ccn[nH]3)c2n1 (stereo unspecified) + NC1CC1c1ccc(-c2cccc(O)c2)cc1', 'NOT MET'),
  ('O=C(C=Cn1cnc(-c2cc(C(F)(F)F)cc(C(F)(F)F)c2)n1)NNc1cnccn1 + NC1CC1c1ccc(-c2cccc(O)c2)cc1', 'MET'),
  ('Nc1ncn(C2CC(O)C(CO)O2)c(=O)n1 (stereo unspecified) + NC1CCC(NC2CC2c2ccccc2)CC1', 'NOT MET'),
  ('CC[C@@]1(O)C(=O)OCc2c1cc1n(c2=O)Cc2cc3c(CN(C)C)c(O)ccc3nc2-1 + NC1CC1c1ccc(-c2cccc(O)c2)cc1', 'MET'),
  ('CC[C@@]1(O)C(=O)OCc2c1cc1n(c2=O)Cc2cc3c(CN(C)C)c(O)ccc3nc2-1 + NC1CCC(NC2CC2c2ccccc2)CC1', 'MET'),
  ('CC(C)CC(NC(=O)CNC(=O)c1cc(Cl)ccc1Cl)B1OC(=O)CC(CC(=O)O)(C(=O)O)O1 (stereo unspecified) + NC1CCC(NC2CC2c2ccccc2)CC1', 'MET'),
  ('CC1COCCN1c1cc(-c2ccnn2C)c2ccnc(-c3ccn[nH]3)c2n1 (stereo unspecified) + NC1CCC(NC2CC2c2ccccc2)CC1', 'NOT MET'),
  ('Cn1ncnc1C1c2n[nH]c(=O)c3cc(F)cc(c23)NC1c1ccc(F)cc1 (stereo unspecified) + NC1CC1c1ccc(-c2cccc(O)c2)cc1', 'NOT MET');
